IC50 reference
TARGET SYSTEM: human TGR1 (NMUR2) (human)
Sequence (chain, as listed by the source): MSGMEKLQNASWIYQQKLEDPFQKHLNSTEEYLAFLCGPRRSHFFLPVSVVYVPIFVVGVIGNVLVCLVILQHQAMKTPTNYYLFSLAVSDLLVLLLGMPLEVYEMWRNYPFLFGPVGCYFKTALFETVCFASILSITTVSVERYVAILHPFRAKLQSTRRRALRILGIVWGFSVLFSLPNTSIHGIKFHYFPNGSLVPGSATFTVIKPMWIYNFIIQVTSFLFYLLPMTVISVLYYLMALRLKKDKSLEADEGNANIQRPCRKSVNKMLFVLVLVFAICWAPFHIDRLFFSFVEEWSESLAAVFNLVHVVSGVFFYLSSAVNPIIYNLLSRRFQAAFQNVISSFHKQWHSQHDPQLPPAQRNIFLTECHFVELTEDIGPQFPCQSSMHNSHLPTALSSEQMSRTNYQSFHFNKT
METHOD NOTES: competition with 125I-NMU8, human TGR1/CHO membrane fraction, filter binding
*1 amine or outer side, *2 acyl side, *3 side chain or, on linkers, in order; H or OH if unused. Primed or numbered codes have the meaning given here. Where no end group is shown, it is not given here. KMUS = cross-linking reagent joining N-terminal amine to thiol PEG, O=C1CC([*:3])C(=O)N1CCCCCCCCCCC(=O)[*:2]; SMCC = cross-linking reagent joining N-terminal amine to thiol PEG; AMBz = omega-aminocarboxylic acid linker (structure only drawn); AU″ = omega-aminocarboxylic acid linker (structure only drawn); AU = not defined here
MEASURE: IC50 (nM)

1) {PEG 30 kDa-KMUS}-YFLFRPRN-NH2 [PEG30k(KMUS)-NMU-8]: 26
2) C(PEG 30 kDa)FFLFRPRN-NH2 [PEG30k-Cys-NMU-8]: 1.9
3) {PEG 30 kDa-AU″}-YFLFRPRN-NH2 [PEG30k(NH-AU)-NMU-8]: 22
4) {PEG 30 kDa-AU″}-YFLFRPRN-NH2 [PEG30k(AU)-NMU-8]: 54
5) {(PEG20k)2-AMBz}-YFLFRPRN-NH2 [(PEG20k)2(AMBz)-NMU-8]: 320
6) {PEG 30 kDa-SMCC}-YFLFRPRN-NH2 [PEG30k(SMCC)-NMU-8]: 4.3
7) {(PEG20k)2-AU}-YFLFRPRN-NH2 (reading uncertain; also: printed as (PEG20k)2(AU)-NMU-8) [(PEG20k)2(AU)-NMU-8]: 560

Origin of values: patent US20100286035A1
